Provenance of the data: patent US20210363269A1

Answer each item with its documented koff.
# targetOrSystem: T1, C57BL/6 mouse SIRP-α D1 domain (mouse (C57BL/6 strain), UniProt P97797 32-148)
# T1 sequence: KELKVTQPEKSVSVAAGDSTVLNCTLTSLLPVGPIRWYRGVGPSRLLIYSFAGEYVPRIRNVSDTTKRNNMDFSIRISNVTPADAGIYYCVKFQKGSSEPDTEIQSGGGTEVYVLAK
# assayName: SPR, Langmuir fit
Numbers only, in s⁻¹.

{"columns": ["binder", "koff (s⁻¹)"],
 "data": [
  ["S3 (scFv, V domains shown, also called clone 3; scFv-Fc form of AB3) VH: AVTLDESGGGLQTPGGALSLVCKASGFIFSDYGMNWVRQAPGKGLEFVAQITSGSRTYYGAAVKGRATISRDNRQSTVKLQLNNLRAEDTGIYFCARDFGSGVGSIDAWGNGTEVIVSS VL: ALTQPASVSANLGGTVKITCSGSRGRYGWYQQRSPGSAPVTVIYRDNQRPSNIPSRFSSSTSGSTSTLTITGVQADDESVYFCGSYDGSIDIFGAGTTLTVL", 0.00197],
  ["S25 (scFv, V domains shown, also called clone 25; scFv-Fc form of AB25) VH: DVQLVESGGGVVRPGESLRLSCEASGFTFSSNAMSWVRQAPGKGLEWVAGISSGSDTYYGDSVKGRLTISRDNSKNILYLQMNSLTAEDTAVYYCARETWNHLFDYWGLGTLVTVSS VL: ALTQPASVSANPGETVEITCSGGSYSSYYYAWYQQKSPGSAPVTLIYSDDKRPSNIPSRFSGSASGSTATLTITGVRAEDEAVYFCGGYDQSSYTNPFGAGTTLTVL", 0.00029],
  ["S189 (scFv, V domains shown) VH: DVQLVESGGGVVRPGESLRLSCAASGFTFSSSDMNWVRQAPGEGLEWVSLISGSGEITYYADSVKGRFTISRDNSKNTLYLQMNSLRAEDTAIYYCAKENNMYRFFDYWGLGTLVTVSS VL: ETVLTQSPGTLSLSPGERATLSCRASQSVYTYLAWYQQKPGQPPRLLIHAARNRAAGIPDRFSGSGSGTEFTLTISSLQSEDFAVYYCQQYYDRPPLTFGGGTKVEIK", 0.0039],
  ["S201 (scFv, V domains shown) VH: DVQLVESGGAVVRPGETLRLSCTASGFTFSSYAMSWVRQAPGKGLEWVSGISASGSDTYYADSVKGRSTISRDNSKNTLYLRMSSLTAEDTAVYYCARETWNHLFDYWGLGTLVTVSS VL: ALTQPASVSANPGETVKITCSGGGTSSYYGWYQQKSPGSAPVTLIHSDDKRPSDIPSRFSGSASGSTATLTITGVQVEDEAVYYCGGYDYTTYVNTFGAGTTLTVL", 0.00111]
]}

Moving on to the next binder.
Sample S27 (scFv, V domains shown, also called clone 27; scFv-Fc form of AB27) VH: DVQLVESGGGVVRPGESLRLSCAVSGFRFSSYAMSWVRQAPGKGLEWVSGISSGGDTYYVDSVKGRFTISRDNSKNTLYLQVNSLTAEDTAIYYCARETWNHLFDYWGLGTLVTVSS VL: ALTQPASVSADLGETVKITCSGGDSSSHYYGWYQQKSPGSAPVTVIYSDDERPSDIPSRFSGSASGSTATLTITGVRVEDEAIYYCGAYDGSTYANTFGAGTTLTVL — what was its koff? 0.00184
